Target: His-hSHIP1 enzyme (Homo sapiens, UniProt Q92835)
Construct: His
Sequence (Q92835 1-1189): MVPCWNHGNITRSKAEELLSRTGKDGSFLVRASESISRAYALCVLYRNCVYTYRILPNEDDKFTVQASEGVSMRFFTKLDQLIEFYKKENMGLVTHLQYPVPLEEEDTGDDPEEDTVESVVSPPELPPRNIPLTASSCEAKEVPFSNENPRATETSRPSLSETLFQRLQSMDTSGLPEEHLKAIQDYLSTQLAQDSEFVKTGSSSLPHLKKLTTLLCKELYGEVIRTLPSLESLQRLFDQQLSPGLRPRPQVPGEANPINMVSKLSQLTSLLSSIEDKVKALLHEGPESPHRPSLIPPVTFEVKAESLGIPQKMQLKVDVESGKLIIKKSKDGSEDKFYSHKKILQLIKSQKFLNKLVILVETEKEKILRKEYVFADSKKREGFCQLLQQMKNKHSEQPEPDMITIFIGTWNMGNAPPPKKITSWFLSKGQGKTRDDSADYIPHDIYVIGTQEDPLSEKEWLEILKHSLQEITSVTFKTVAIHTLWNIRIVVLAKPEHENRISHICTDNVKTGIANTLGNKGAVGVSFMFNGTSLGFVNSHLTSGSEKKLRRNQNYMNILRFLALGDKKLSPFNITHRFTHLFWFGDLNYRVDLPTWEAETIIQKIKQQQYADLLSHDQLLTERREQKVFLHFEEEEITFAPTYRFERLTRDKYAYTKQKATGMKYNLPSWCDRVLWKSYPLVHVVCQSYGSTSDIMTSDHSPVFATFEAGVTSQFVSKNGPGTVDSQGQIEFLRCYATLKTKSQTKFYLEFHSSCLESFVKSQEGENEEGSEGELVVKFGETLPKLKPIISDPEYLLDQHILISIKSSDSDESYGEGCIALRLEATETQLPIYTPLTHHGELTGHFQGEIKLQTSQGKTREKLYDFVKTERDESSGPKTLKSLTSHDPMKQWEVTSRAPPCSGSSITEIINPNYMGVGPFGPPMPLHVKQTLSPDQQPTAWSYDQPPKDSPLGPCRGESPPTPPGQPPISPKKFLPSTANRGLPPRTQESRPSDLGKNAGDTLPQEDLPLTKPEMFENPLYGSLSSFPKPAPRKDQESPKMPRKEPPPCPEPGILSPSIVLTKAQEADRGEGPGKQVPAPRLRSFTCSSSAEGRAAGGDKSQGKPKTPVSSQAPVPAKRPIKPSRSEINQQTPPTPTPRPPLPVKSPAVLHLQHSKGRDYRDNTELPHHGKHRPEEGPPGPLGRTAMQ
Assay: His-hSHIP1 enzyme activation assay (IP4 substrate, Biomol Green phosphate release)
Format: biochemical
Conditions: percentage increase relative to background; concentrations ≦300 μM
MEASURED_ENDPOINT: Activation of His-hSHIP1 Enzyme, Scoring (percent activation)

CC1(C)[C@H]2CC[C@]3(C)c4c(O)cc(O)cc4C[C@H]3[C@]2(C)CC[C@@H]1N.Cl [8a•HCl]	+ (<25%)
CC1(C)[C@H](O)CC[C@]2(C)[C@@H]1CC[C@]1(C)c3c(O)cc(O)cc3C[C@@H]21 (racemic) [16a/16b]	++ (≧25% but <50%)
CC1(C)[C@@H](N)CC[C@]2(C)[C@H]3Cc4cc(O)cc(O)c4[C@]3(C)CC[C@@H]12	+ (<25%)
COc1cc2c(c(OC)c1)[C@@]1(C)CC[C@@H]3C(C)(C)[C@H](O)CC[C@@]3(C)[C@@H]1C2 (racemic)	++ (≧25% but <50%)
Cc1cc(O)cc2c1[C@@]1(C)CC[C@@H]3C(C)(C)C(=O)CC[C@@]3(C)[C@@H]1C2 (racemic) [19a/19b]	++ (≧25% but <50%)

Next compound, Activation of His-hSHIP1 Enzyme, Scoring (percent activation) to be filled in.
Which Activation of His-hSHIP1 Enzyme, Scoring (percent activation) value is on record for COc1cc(C)c2c(c1)C[C@H]1[C@]3(C)CC[C@@H](O)C(C)(C)[C@H]3CC[C@]21C (racemic) [17a/17b] ?
++ (≧25% but <50%)

* * *

test: Water solubility (24 h stirring in deionized water, HPLC); format: physicochemical; settings: thermodynamic from solid, stirred 24 hours, read-out: Soluble Concentration
MEASURED_ENDPOINT: solubility at 24 h (µg/mL)
State the answer as a number, implicitly in µg/mL.

CC1(C)[C@H]2CC[C@]3(C)c4c(O)cc(O)cc4C[C@H]3[C@]2(C)CC[C@@H]1N.Cl [8a•HCl]	1400

Entry CC1(C)[C@@H](O)CC[C@]2(C)[C@H]3Cc4cc(O)cc(O)c4[C@]3(C)CC[C@@H]12 [Compound 16b] has what solubility at 24 h?
133

The reported measurements were obtained from patent US9000050B2.
